B1: CPEB3 Ribozyme (parent)
chain: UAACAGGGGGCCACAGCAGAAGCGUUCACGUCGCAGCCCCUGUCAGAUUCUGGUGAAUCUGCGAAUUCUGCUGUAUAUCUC

Variants of: B1
Assay: self-cleavage, relative activity (ratio to wild type); higher = more cleavage; in vitro, sequencing
// values below are reported self-cleavage
PROPERTY LABEL: self-cleavage

MUTATION CODE: G8U U48C
VALUE MEASURED: 0.38
--
MUTATION CODE: U51A C68U
VALUE MEASURED: 1.04
--
MUTATION CODE: A13U G19A
VALUE MEASURED: 0.17
--
MUTATION CODE: G70A U78A
VALUE MEASURED: 0.43
--
MUTATION CODE: U25C C38G
VALUE MEASURED: 0.19
--
MUTATION CODE: C23U A77G
VALUE MEASURED: 0.34
--
MUTATION CODE: C4A U51C
VALUE MEASURED: 1.14
--
MUTATION CODE: C12G A13C
VALUE MEASURED: 0.72
--
MUTATION CODE: A57U U58A
VALUE MEASURED: 0.3
--
MUTATION CODE: C17U U41G
VALUE MEASURED: 0.37
--
MUTATION CODE: U1A A45G
VALUE MEASURED: 0.75
--
MUTATION CODE: C12A A28C
VALUE MEASURED: 0.57
--
MUTATION CODE: C4U A57G
VALUE MEASURED: 1.05
--
MUTATION CODE: C37A C71U
VALUE MEASURED: 0.2
--
MUTATION CODE: G7A C32U
VALUE MEASURED: 0.09
--
MUTATION CODE: C14U A18U
VALUE MEASURED: 0.44
--
MUTATION CODE: U76C U80C
VALUE MEASURED: 1.13
--
MUTATION CODE: U1A U60C
VALUE MEASURED: 0.35
--
MUTATION CODE: U25G U54A
VALUE MEASURED: 0.49
